Where do these numbers come from? They come from paper PMC13480645.

Kindly supply the reported IC50 of neutralisation of SARS-CoV-2 pseudovirus (HeLa-hACE2 cells) values for the records listed here.
molecular target: SARS-CoV-2 S-2P protein (SARS-CoV-2, ancestral (Wuhan-Hu-1) …, UniProt P0DTC2, stabilised); assay: cell-based or functional assay
Write down the numeric answer in µg/mL and omit the unit.

q: Entry eCC65.1-3 (antibody, V domains shown) VH: VQLVQSGAEVKKPGASVKVSCKASGYTFTSQYMHWVRQAPGQGLEWMGIIDPEGGGTSYAQKFRDRVSMTRDTPTSTVYMELRSLRSEDTAVYYCASLWFEQPSWRDYWGQGTLVTVSS VL: VMTQSPGTLSLSPGERATLSCRASQTVNKNYLAWYQQKPGQAPRLLIYHASSRATGIPDRFSGSGSGTDFTLTISRLEPEDFAVYYCQQYGASPPLFTFGPGTKLEIK has what IC50 of neutralisation of SARS-CoV-2 pseudovirus (HeLa-hACE2 cells)?
a: 4.67

q: Would you mind doing eCC65.1-8 (antibody, V domains shown) VH: VQLVQSGAEVKKPGASVKVSCKASGYEFTSQYMHWVRQAPGQGLEWMGIIDPSGGGASYAQKFRDRVSMTRDTPTSTVYMELRSLRSEDTAVYYCASLWFGNPSWRDYWGQGTLVTVSS VL: VMTQSPGTLSLSPGERATLSCRASQTVNSNYLAWYQQKPGQAPRLLIYHASSRATGIPDRFSGSGSGTDFTLTISRLEPEDFAVYYCQQYQSSPPLFTFGPGTKLEIK as well?
a: 3.95

q: Would you mind doing eCC65.1-6 (antibody, V domains shown) VH: EVQLVQSGAEVKKPGASVKVSCKASGYTFTSQYMHWVRQAPGQGLEWMGIIDPSGGGTSYAQKFRDRVSMTRDTPTSTVYMELRSLRSEDTAVYYCASLWFENPSWRDYWGQGTLVTVSS VL: VMTQSPGTLSLSPGERATLSCRASQTVNKNYLAWYQQKPGQAPRLLIYHASSRATGIPDRFSGSGSGTDFTLTISRLEPEDFAVYYCQQYGSSPPLFTFGPGTKLEIK as well?
a: 2.98
